biological target: T1, Abz-LPESGK(Dnp)-CONH2
T1 chain: LPESGK
log10 of Specificity, LPESG over LPETG reference
endpoint: log10 of Specificity, LPESG over LPETG (log10 of the value in fold)

1) eSrtA(4S-6) (protein) QAKPQIPKDKSKVAGYIEIPDADIKEPVYPGPATREQLDRGVSFVEENESLDDQNISISGHTAIDRPNYQFTNLGAAKKGSMVYFKVGNETRKYKMTSIRNVKPTAVEVLDEQKGKDKQLTLVTCDDYNVETGVWETRKIFVATEVK    0.91
2) eSrtA(4S-4) (protein) QAKPQIPKDKSKVAGYIEIPDADIKEPVYPGPATREQLNRGVSFVEENESLDDQNISITGHTSIDRPNYQFTNLKAAKKGSMVYFKVGNETRKYKMTSIRNVKPTAVEVLDEQKGKDKQLTLVTCDDYNEETGVWETRKIFVATEVK    0.35
3) eSrtA(4S-9) (protein) QAKPQIPKDKSKVAGYIEIPDADIKEPVYPGPATREQLDRGVCFVEENESLDDQNISITGHTAIDRPNYQFTNLRAAKKGSMVYLKVGNETRKYKMTSIRNVKPTAVEVLDEQKGKDKQLTLVTCDDYNFETGVWETRKIFVATEVK    1.40
4) eSrtA(4S-3.5) (protein) QAKPQIPKDKSKVAGYIEIPDADIKEPVYPGPATREQLNRGVSFTEENESLDDQNISITGHTFIDRPNYQFTNLKAAKKGSMVYFKVGNETRKYKMTSIRNVKPTAVEVLDEQKGKDKQLTLVTCDDYNEETGVWETRKIFVATEVK    0.16
5) eSrtA(4S-5) (protein) QAKPQIPKDKSKVAGYIEIPDADIKEPVYPGPATREQLDRGVSFVEENESLDDQNISITGHTAIDRPNYQFTNLRAAKKGSMVYFKVGNETRKYKMTSIRNVKPTAVEVLDEQKGKDKQLTLVTCDDYNEETGVWETRKIFVATEVK    0.99
6) eSrtA(4S-3) (protein) QAKPQIPKDKSKVAGYIEIPDADIKEPVYPGPATREQLSRGVSFTEENESLDDQNISITGHTSIGRPNYQFTNLRAAKKGSMVYFKVGNETRKYKMTSIRNVKPTAVEVLDEQEGKDEQLTLVTCDDYNEETGVWETRKIFVATEVK    2.39

The reported measurements were obtained from patent US20160208233A1.
